B1: LINE1-mini (parent)
chain: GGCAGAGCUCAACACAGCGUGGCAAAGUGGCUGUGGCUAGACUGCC

variants of: B1; test: self-cleavage, relative activity (ratio to wild type); higher = more cleavage; in vitro, sequencing; the parent is a self-cleaving ribozyme
Hi there, I'd appreciate the recorded self-cleavage for every entry that follows.

Prompt: Identify measured self-cleavage associated with G5C G22U
Response: 0.04

Prompt: Identify measured self-cleavage associated with U20A C37A
Response: 0.05

Prompt: Input C10G C37U , output reported self-cleavage.
Response: 0.01

Prompt: Using the record for A11U A12U , state its measured self-cleavage.
Response: 0.07

Prompt: Answer with the recorded self-cleavage for the variant listed here: U34G C42A
Response: 0.07

Prompt: # return recorded self-cleavage for input A4U U20G
Response: 0.09

Prompt: Read off the recorded self-cleavage for G22A A26G
Response: 1.31

Prompt: Identify measured self-cleavage corresponding to C8G A24C
Response: 0.09

Prompt: Give the value of self-cleavage reported for the following: G36U U38C
Response: 0.11

Prompt: For the variant A6U A24C , give its reported self-cleavage.
Response: 1.21

Prompt: Give reported self-cleavage value for C10A G29A
Response: 0.06

Prompt: Give the reported value of self-cleavage for this record: U20A
Response: 0.68

Prompt: Give the reported self-cleavage for this variant. A6C G17A
Response: 0.17

Prompt: Return reported self-cleavage. Input variant: C15U A26C
Response: 1.74

Prompt: Quick one: give measured self-cleavage for G35A C46A
Response: 0.11

Prompt: Report measured self-cleavage; entry is G17U G40A
Response: 0.05

Prompt: Provide one value: measured self-cleavage of U9A G27U
Response: 0.14

Prompt: Could you please provide reported self-cleavage for G17A G33U ? Thanks!
Response: 0.02

Prompt: Report self-cleavage for G2U G44U
Response: 0.06

Prompt: Read the entry G2C U28G and write its reported self-cleavage.
Response: 0.05

Prompt: Item A14U C37A : provide self-cleavage
Response: 0.08

Prompt: Answer with the recorded self-cleavage for the variant listed here: G17A U34A
Response: 0.04

Prompt: Write down self-cleavage measured for item U34A
Response: 0.1

Prompt: Report measured self-cleavage; entry is G22C G30C
Response: 1.94

Prompt: Given the variant U38C G44U , write its reported self-cleavage.
Response: 0.27

Prompt: Read off the recorded self-cleavage for A24C C31G
Response: 0.03

Prompt: Give self-cleavage for the following variant: A12C C46U
Response: 0.02

Prompt: Provide one value: measured self-cleavage of A4G G35U
Response: 0.19

Prompt: Name the recorded self-cleavage of the item A12C in your answer.
Response: 0.03

Prompt: Give recorded self-cleavage. U9C U34G
Response: 0.03

Prompt: Answer with reported self-cleavage of C10A U38C
Response: 0.16

Prompt: Assign self-cleavage to the following record: G27A G30U
Response: 1.61

Prompt: Give self-cleavage for the following variant: A11C U43G
Response: 0.03

Prompt: Supply self-cleavage value. Item: G5A C18A
Response: 0.1

Prompt: Item C13G G17U : provide self-cleavage
Response: 0.06

Prompt: Return the recorded self-cleavage value; entry: G1U A26C
Response: 0.32

Prompt: Return reported self-cleavage. Input variant: G1U U20G
Response: 0.16

Prompt: Supply recorded self-cleavage for G22C A26G here.
Response: 0.87

Prompt: Give self-cleavage for the following variant: C31U C45A
Response: 0.13

Prompt: Provide measured self-cleavage value, entry: A12G G30A
Response: 0.03

Prompt: Dear colleague, please send me the reported self-cleavage for A11U G22A when you can.
Response: 0.34

Prompt: Supply reported self-cleavage belonging to this variant: G5A C23U
Response: 0.14

Prompt: Complete the entry with self-cleavage for G22A U28G
Response: 0.67

Prompt: Item A26G C37A : provide self-cleavage
Response: 0.02

Prompt: Note down self-cleavage recorded for G29U G35C
Response: 0.08

Prompt: Consider the variant C45G C46U . State its measured self-cleavage.
Response: 0.66

Prompt: Indicate the recorded self-cleavage value for this variant: C10G A25C
Response: 0.1

Prompt: Quickly give me recorded self-cleavage for C3G G21A
Response: 1.1

Prompt: Return value of self-cleavage for input C42A C45A , no commentary.
Response: 0.09

Prompt: State its self-cleavage: U28A C37G
Response: 0.04

Prompt: Please indicate self-cleavage recorded for A16C G29C
Response: 0.77

Prompt: Supply recorded self-cleavage for G29C C46A here.
Response: 0.68

Prompt: Write down self-cleavage measured for item G1U G29A
Response: 0.44

Prompt: Give a short answer stating reported self-cleavage for A11C C42U .
Response: 0.02

Prompt: Query self-cleavage for G30A U32G
Response: 0.41

Prompt: Determine from records and report self-cleavage for C10G U43G
Response: 0.02

Prompt: Read off the recorded self-cleavage for A4C C23G
Response: 0.23

Prompt: Return self-cleavage for the following variant: C13A U32G
Response: 0.08

Prompt: Quickly give me recorded self-cleavage for G17U C31G
Response: 1.67

Prompt: Specify measured self-cleavage for A14U G30A .
Response: 0.18

Prompt: Read off the recorded self-cleavage for U32A C37U
Response: 0.08

Prompt: In one line, give reported self-cleavage of the entry G27C C46G .
Response: 0.59

Prompt: Specify measured self-cleavage for U9C C37G .
Response: 0.01

Prompt: // fetch self-cleavage given entry G17A A26C
Response: 0.34

Prompt: Output measured self-cleavage for this item: G5C C42A
Response: 0.09

Prompt: Retrieve self-cleavage measured for A25G G33U and print it.
Response: 0.05

Prompt: Provide one value: measured self-cleavage of C23G G29C
Response: 0.26

Prompt: Provide measured self-cleavage value, entry: G7C A12C
Response: 0.03

Prompt: Using the record for C8A U43G , state its measured self-cleavage.
Response: 0.11

Prompt: Give me measured self-cleavage, please, for this variant: G40U C42A
Response: 0.09

Prompt: Determine from records and report self-cleavage for A14G C37U
Response: 0.19

Prompt: Give the value of self-cleavage reported for the following: G22U C31G
Response: 0.22

Prompt: Return reported self-cleavage. Input variant: G19U G35A
Response: 0.12

Prompt: Check the records and state self-cleavage for A16C G17U
Response: 0.08

Prompt: Give recorded self-cleavage. A11C C15A
Response: 0.02

Prompt: Identify the reported self-cleavage for the following entry. A12C C15U
Response: 0.03

Prompt: Supply measured self-cleavage of C8A C31A in your reply.
Response: 0.36

Prompt: For the variant G7U U34A , give its measured self-cleavage value.
Response: 0.08

Prompt: Annotate the variant U32G C45U with its measured self-cleavage.
Response: 0.12

Prompt: State its self-cleavage: C45A
Response: 0.64

Prompt: Tell me its self-cleavage given U34A G36U as the entry.
Response: 0.04

Prompt: Respond only with self-cleavage recorded for C37U A41C
Response: 0.02

Prompt: Give me measured self-cleavage, please, for this variant: U28G C37A
Response: 0.03

Prompt: // fetch self-cleavage given entry A24G C46U
Response: 0.93

Prompt: Determine from records and report self-cleavage for C18U U32G
Response: 0.09

Prompt: Report measured self-cleavage; entry is G5U U9G
Response: 0.11

Prompt: Tell us which self-cleavage value is on record for G27U G29A
Response: 0.96

Prompt: For the variant C15A C23U , report self-cleavage.
Response: 0.14

Prompt: Supply reported self-cleavage belonging to this variant: U9C A26G
Response: 0.05

Prompt: Specify self-cleavage for G7A G29U and stop.
Response: 0.2

Prompt: Using the record for G22U G30U , state its measured self-cleavage.
Response: 1.03

These entries and their values trace back to the RNAGym collection of RNA variant scans (doi:10.7554/elife.90254).
